- Test Target: recombinant human deoxyuridine nucleotidohydrolase (dUTPase) (Homo sapiens, UniProt P33316)
- Construct: made in house
- Sequence (P33316 1-164 isoform P33316-2): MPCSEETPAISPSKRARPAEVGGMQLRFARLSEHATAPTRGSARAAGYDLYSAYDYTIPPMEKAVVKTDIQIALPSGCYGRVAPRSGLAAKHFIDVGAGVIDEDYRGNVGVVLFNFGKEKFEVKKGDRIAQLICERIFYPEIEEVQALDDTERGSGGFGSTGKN
- Protocol: fluorescence-based dUTPase inhibition assay
- Format: biochemical
- Reported Conditions: 5 ng recombinant dUTPase, 50 pmols dUTP, 37° C. for 8 mins
pIC50: −log10 of the molar value.
Metric: pIC50

[I] C[C@@H](NS(=O)(=O)Cc1ccc(CN2CC(=O)NC2=O)cc1)c1ccc(F)c(OCC2CC2)c1
[II] C[C@@H](NS(=O)(=O)Cc1cccc(CN2CC(=O)NC2=O)c1)c1ccc(F)c(OCC2CC2)c1
**Q:** # returns the entry with the larger pIC50; inputs I and II Please reply using the label of the selected record.
**A:** I
(I: 5.66, II: 4.10)
